read-out: UDP glucuronosyltransferase (UGT1A6), UGT1A6 (gene 54578); assay: LTEA_HepaRG_UGT1A6: Life Technologies and Expression Analysis (LTEA) Assay for UDP glucuronosyltransferase (UGT1A6) using HepaRG (AID 2283539); conditions: mRNA level, 48 h; actives raise or lower the signal
Activity calls are given as the source filed them. How the source made its calls: active means hit-call score of the fitted dose curve at least 0.9, where 1 is the maximum; inactive means score below 0.9.
Labels: y for active, n for inactive

{"columns": ["compound", "class name"],
 "data": [
  ["CCCCCCCCCCCCOS(=O)(=O)O", "y"],
  ["CN(Cc1cnc2nc(N)nc(N)c2n1)c1ccc(C(=O)N[C@@H](CCC(=O)O)C(=O)O)cc1", "n"],
  ["CCCCCCCCCCCCCCC", "n"],
  ["CCCCC(CC)C(=O)O (stereo unspecified)", "n"],
  ["Cc1[nH]nc2c1N=C(c1ccccc1Cl)c1cc([N+](=O)[O-])ccc1N2", "y"],
  ["CN(C)CCOC(c1ccccc1)c1ccccc1", "n"]
]}
